- System: CCRF-CEM leukemia
- assay-comment: NCI-60 one-dose screen, 48 h (100 = growth as untreated, 0 = no growth, -100 = all killed)
- condition-summary: 10 µM unless noted
About 83,000 compounds went through this panel and 20% of them were active in at least one assay; those are over-represented in the sample as a whole.
quantity-kind: growth (%)
I only need the number, in %, no unit after it.

Record excerpt, results attached:
{"molecule": "CCSc1ccc2c(c1)N(CCCN1CCN(C)CC1)c1ccccc1S2", "reported-value": 27.9}
{"molecule": "N#Cc1c(Nc2ccccc2)nn2cc(-c3nc4ccccc4s3)c(N)nc12", "reported-value": 79.2}
{"molecule": "Fc1ccccc1CSc1ncnc2nc[nH]c12", "reported-value": 117}

Suppose we examine the molecule COc1ccc(/C=C/C(=O)c2ccc(OC)c(OC)c2)cc1O ; what growth value has been reported? 62.5

Now give it for Cc1ccc(C2CC(c3cccc(Nc4ccncc4)c3)=NN2c2ccccc2)cc1 (configuration not stated) too. -24.5

Now give it for O=C1Nc2c(ccc(Cl)c2Cl)/C1=C/c1ccccn1 too. 23.2

* * *

List of growth values.
- Tested on: IGROV1 ovarian
- assay-comment: NCI-60 one-dose screen, 48 h (100 = growth as untreated, 0 = no growth, -100 = all killed)
- condition-summary: 10 µM unless noted
Compounds without any hit were thinned out: in the full panel of roughly 83,000, 20% have a hit.
I only need the number, in %, no unit after it.

{"compound": "N#C/C(=C\\c1ccc(Br)cc1)n1nnc2cccc(F)c21", "growth / %": 4.13}
{"compound": "Cc1c(C2=CCCCC2)c2ccccn2c1C(=O)c1cccc(S(=O)(=O)N2CCOCC2)c1", "growth / %": 75.7}
{"compound": "CS(=O)(=O)c1ccc(-c2cc3c(oc2=O)-c2ccccc2OC3O)cc1 (centres undefined)", "growth / %": 102}
{"compound": "COc1ccc(C(=O)/C=C/c2c(OC)cc(OC)cc2OC)c(OC)c1", "growth / %": 40.3}

Suppose we examine the compound C=C1C(=O)O[C@H]2[C@H]1CC/C(CNC(=O)/C=C/c1ccc(Br)cc1)=C\CC[C@@]1(C)O[C@@H]21 ; what growth value has been reported? -27.9

Now give it for C#CCn1cc(C=C2C(=O)NC(=S)NC2=O)c2cc(Cl)ccc21 too. -40.6

* * *

List of growth values.
- Test system: M14 melanoma
- assay-comment: NCI-60 one-dose screen, 48 h (100 = growth as untreated, 0 = no growth, -100 = all killed)
- condition-summary: 10 µM unless noted
The panel holds about 83,000 compounds, 20% with a hit somewhere; the sample as a whole holds those more often.
I only need the number, in %, no unit after it.

{"compound": "C=C(C)[C@@H]1CC[C@]2(C(=O)N3CCN(C)CC3)CC[C@]3(C)[C@H](CC[C@@H]4[C@@]5(C)CCC(=O)C(C)(C)[C@@H]5CC[C@]43C)[C@@H]12", "reported-value": 94.7}

Suppose we examine the compound O=S(=O)(NCCCNc1nccc(-c2c(-c3cccc(O)c3)nc3occn23)n1)c1ccc(F)cc1 ; what growth value has been reported? 27.5

Now give it for COc1ccc(-c2ncc(-c3ccccc3)[nH]2)cc1OC too. 119

Now give it for Cc1ccc2[nH]c(=S)n(-c3ccc(S(=O)(=O)Nc4ccc(Cl)nn4)cc3)c(=O)c2c1 too. -69.5

Now give it for CCCCOc1ccc(/C=N/Nc2cc(C)nc3ccc(Cl)cc23)cc1 too. -25.2

* * *

- Test system: NCI-H23 lung
- assay-comment: NCI-60 one-dose screen, 48 h (100 = growth as untreated, 0 = no growth, -100 = all killed)
- condition-summary: 10 µM unless noted
About 83,000 compounds went through this panel and 20% of them were active in at least one assay; those are over-represented in the sample as a whole.
quantity-kind: growth (%)
I only need the number, in %, no unit after it.

Record excerpt, results attached:
{"compound": "Cc1ccc(/C=C/C(=O)c2ccc(N)cc2)c(C)c1", "target-under-test": "NCI-H23 lung", "growth [%]": 10.4}
{"compound": "Clc1ccc(N2N=C(c3cccc(Nc4ccncc4)c3)CC2c2ccc(Br)cc2)cc1 (stereo not given)", "target-under-test": "NCI-H23 lung", "growth [%]": 57.1}
{"compound": "COc1ccccc1-c1c(-c2ccc(Cl)cc2)c2cc3c(cc2[nH]c1=O)OCCO3", "target-under-test": "NCI-H23 lung", "growth [%]": 72.8}
{"compound": "COc1ccc(Cn2nc3c(c2-c2cc(OC)c(OC)c(OC)c2)-c2oncc2CC3)cc1", "target-under-test": "NCI-H23 lung", "growth [%]": 79.8}

// switching to the query compound
NCI-H23 lung / growth / CCCNC(=O)Oc1ccc(/C(=C(\C)c2ccccc2)c2ccc(OCCN3CCCCC3)cc2)cc1 : value? 79.4

* * *

- System: HCT-15 colon
- assay-comment: NCI-60 one-dose screen, 48 h
- condition-summary: 10 µM unless noted
Compounds without any hit were thinned out: in the full panel of roughly 83,000, 20% have a hit. Calls of active or inactive are those of the source. How the source made its calls: active means growth percent below 10; inactive means the rest.
# valid calls are T for active, F for inactive; nothing else

Solved cases below.
{"compound": "CCOC(=O)C1=C(C)NC(C)=C(C(=O)OCC)C1c1cc(Br)c(O)c(OC)c1", "cat": "F"}
{"compound": "CC(=O)c1c(-c2ccc(OC(F)(F)F)cc2)nc2ccccn12", "cat": "F"}
{"compound": "COc1ccc(Cn2nc3c(c2-c2cc(OC)c(OC)c(OC)c2)-c2oncc2CC3)cc1", "cat": "F"}
{"compound": "CCCCCCCCOC(=O)c1ccc(O)c(OC)c1", "cat": "F"}
{"compound": "CC(C)(C#N)N1CCN(c2ccccc2Cl)CC1", "cat": "F"}
{"compound": "Clc1ccc(N2N=C(c3cccc(Nc4ccncc4)c3)CC2c2ccc3c(c2)OCO3)cc1 (configuration not stated)", "cat": "T"}
{"compound": "NC(=O)c1cccc(-c2ccccc2N2CCCCC2)c1", "cat": "F"}
{"compound": "CCC(C)N(CCNc1cc(OC)cc2cccnc12)CCC(C)C (configuration not stated)", "cat": "F"}

Okay, now this compound:
Write down the call the test reported for this compound. Item: Cc1ccccc1-c1cc(Cc2ccc(F)cc2)c(=O)[nH]n1 F

* * *

- Tested on: HCT-15 colon
- assay-comment: NCI-60 one-dose screen, 48 h (100 = growth as untreated, 0 = no growth, -100 = all killed)
- condition-summary: 10 µM unless noted
- Procedure: Growth inhibition of the HCT-15 human tumor cell line is measured as a screen for anti-cancer activity. Cells are grown in 96 well plates and exposed to the test compound for 48 hours. Compounds are tested at a single concentration, which is 10^-5 M for most compounds. The reported endpoint is percent growth (GI% or GIPRCNT), where numbers from 0 - 100% represent growth inhibition, and numbers from -100% - 0 represent cell death. For example, a value of 40 represents 60% growth inhibition. […]
This is part of a sample that, as a whole, favours compounds with a hit. Of some 83,000 tested, about 20% had one in any assay. The source made the active and inactive calls. How the source made its calls: active means growth percent below 10; inactive means the rest.
List of growth values.

Record excerpt, results attached:
{"molecule": "CCCCCCC/C=C/[C@H]1O[C@]2(O)C(=O)C=C3C[C@@H](O[C@@H]4O[C@H](CO)[C@@H](O)C(O)[C@@H]4O)C[C@@H]3[C@H]2C=C1C (stereo not given in full)", "quantity-kind": "growth", "reported-value": "-25% (active)"}
{"molecule": "Cc1ccccc1C(c1ccccc1)c1ccccc1C", "quantity-kind": "growth", "reported-value": "95.6% (inactive)"}
{"molecule": "N#CC1=C(N)Oc2c(ccc3ccccc23)C1c1ccc([N+](=O)[O-])cc1 (stereo not given)", "quantity-kind": "growth", "reported-value": "41.5% (inactive)"}

Suppose we examine the molecule Fc1ccc(C2CC(c3cccc(Nc4ccncc4)c3)=NN2c2ccc(Cl)cc2)cc1 (stereo not given) ; what growth value has been reported? 3.49% (active)

Now give it for C=CCn1c(SCC(=O)Nc2ccc(C(=O)/C=C/c3cc(OC)c(OC)c(OC)c3)cc2)nnc1-c1cc(-c2ccc(S(C)(=O)=O)cc2)nc2ccccc12 too. 69.7% (inactive)

* * *

- Tested on: UO-31 renal
- assay-comment: NCI-60 one-dose screen, 48 h (100 = growth as untreated, 0 = no growth, -100 = all killed)
- condition-summary: 10 µM unless noted
This is part of a sample that, as a whole, favours compounds with a hit. Of some 83,000 tested, about 20% had one in any assay.
criterion met means recorded growth is 80% or above; criterion not met means it is below 80%.

{"molecule": "CCN(CC)CCCC(Nc1c2ccc(Cl)cc2nc2ccc(OC)cc12)c1ccc(Cl)cc1 (stereo unspecified)", "target-under-test": "UO-31 renal", "cat": "criterion not met"}
{"molecule": "COc1cc(NCC(O)CN(CC(C)C)CC(C)C)c2nc(C)ccc2c1 (stereo unspecified)", "target-under-test": "UO-31 renal", "cat": "criterion not met"}
{"molecule": "COc1ccccc1OCC(=O)N1CCCCCC1", "target-under-test": "UO-31 renal", "cat": "criterion met"}
{"molecule": "COc1cc(NCC(O)CN(CC(C)C)C2CCCC2)c2ncccc2c1 (stereo unspecified)", "target-under-test": "UO-31 renal", "cat": "criterion not met"}
{"molecule": "Cn1ncc2c(Nc3ccccc3Cl)nc(Cl)nc21", "target-under-test": "UO-31 renal", "cat": "criterion met"}

growth >= 80% for COc1cc(NCCN(CC(C)C)C2CCCC2)c2ncccc2c1 ? criterion met

Now give it for Cc1ccc2[nH]c(=O)cc(-n3nncc3COc3ccc(C=O)cc3)c2c1 too. criterion not met

Now give it for CCOC(=O)c1c(C)nc2c(c1N)C(=O)C(=O)N2Cc1ccc(C(F)(F)F)cc1 too. criterion not met

Now give it for NC(=O)c1ccc[n+](CC(=O)N2CCN(c3cc4c(cc3F)c(=O)c(C(=O)O)cn4C3CC3)CC2)c1 too. criterion not met

Provenance of the data: PubChem BioAssay (NCI)
